Tested on: 292921-168-R-J2-PDC complex spheroid viability
Test: Anticancer human tumor 292921-168-R-J2-PDC patient-derived pancreatic carcinoma cell line growth inhibition
Settings: second compound 1 µM; first compound 0.003 µM; stronger effect = lower value
Source text: Multicellular complex tumor spheroid response to LSD1 Inhibitor Iadademstat in combination with a variety of drugs and investigational agents in selected tumor cell lines The current study was undertaken to assess response to LSD1 inhibitors in combination with standard-of-care drugs and investigational agents in solid tumor complex spheroid models as well as in the K-562 leukemia. […] Compounds. […] If the clinical Cmax for an agent had not been determined, the highest concentration tested was 10 microM. […]
We begin with a simple list: items and their reported viability, T/C.

COMPOUND | STUDY_TARGET | viability, T/C
Nc1ncn(C2CC(O)C(CO)S2)c(=O)n1 (stereo unspecified) + NC1CC1c1ccc(-c2cccc(O)c2)cc1 | 292921-168-R-J2-PDC complex spheroid viability | 67%
Nc1ncn(C2CC(O)C(CO)S2)c(=O)n1 (stereo unspecified) + NC1CCC(NC2CC2c2ccccc2)CC1 | 292921-168-R-J2-PDC complex spheroid viability | 62.7%
Nc1ccn(C2OC(CO)C(O)C2(F)F)c(=O)n1 (stereo unspecified) + NC1CC1c1ccc(-c2cccc(O)c2)cc1 | 292921-168-R-J2-PDC complex spheroid viability | 8.35%
CCc1c2c(nc3ccc(O)cc13)-c1cc3c(c(=O)n1C2)COC(=O)[C@]3(O)CC + NC1CCC(NC2CC2c2ccccc2)CC1 | 292921-168-R-J2-PDC complex spheroid viability | 3.94%
Nc1ccn(C2OC(CO)C(O)C2(F)F)c(=O)n1 (stereo unspecified) + NC1CCC(NC2CC2c2ccccc2)CC1 | 292921-168-R-J2-PDC complex spheroid viability | 10.7%
CCc1c2c(nc3ccc(O)cc13)-c1cc3c(c(=O)n1C2)COC(=O)[C@]3(O)CC + NC1CC1c1ccc(-c2cccc(O)c2)cc1 | 292921-168-R-J2-PDC complex spheroid viability | 2.69%

###

System: 292921-168-R-J2-PDC complex spheroid viability
Test: Anticancer human tumor 292921-168-R-J2-PDC cell line growth inhibition; active means viability on the fitted dose curve at most 10% of control; inactive means the rest;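 further: seven day compound exposure before luminescent viability read; 100% = DMSO vehicle control wells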
Settings: second compound 0.316 µM; first compound 0.003 µM
Possible outcomes: active, inactive

COMPOUND | STUDY_TARGET | CLASS
Nc1ncn(C2CC(O)C(CO)S2)c(=O)n1 (stereo unspecified) + NC1CC1c1ccc(-c2cccc(O)c2)cc1 | 292921-168-R-J2-PDC complex spheroid viability | inactive
Nc1ccn(C2OC(CO)C(O)C2(F)F)c(=O)n1 (stereo unspecified) + NC1CC1c1ccc(-c2cccc(O)c2)cc1 | 292921-168-R-J2-PDC complex spheroid viability | active
CCc1c2c(nc3ccc(O)cc13)-c1cc3c(c(=O)n1C2)COC(=O)[C@]3(O)CC + NC1CC1c1ccc(-c2cccc(O)c2)cc1 | 292921-168-R-J2-PDC complex spheroid viability | active
CCc1c2c(nc3ccc(O)cc13)-c1cc3c(c(=O)n1C2)COC(=O)[C@]3(O)CC + NC1CCC(NC2CC2c2ccccc2)CC1 | 292921-168-R-J2-PDC complex spheroid viability | active
Nc1ccn(C2OC(CO)C(O)C2(F)F)c(=O)n1 (stereo unspecified) + NC1CCC(NC2CC2c2ccccc2)CC1 | 292921-168-R-J2-PDC complex spheroid viability | inactive
Nc1ncn(C2CC(O)C(CO)S2)c(=O)n1 (stereo unspecified) + NC1CCC(NC2CC2c2ccccc2)CC1 | 292921-168-R-J2-PDC complex spheroid viability | inactive

###

Test system: 292921-168-R-J2-PDC complex spheroid viability
Assay: Anticancer human tumor 292921-168-R-J2-PDC cell line growth inhibition;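 further: seven day compound exposure before luminescent viability read; 100% = DMSO vehicle control wells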
Conditions: second compound 0.1 µM; first compound 0.003 µM; stronger effect = lower value

COMPOUND | UNIT_LABEL | viability, T/C
CCc1c2c(nc3ccc(O)cc13)-c1cc3c(c(=O)n1C2)COC(=O)[C@]3(O)CC + NC1CCC(NC2CC2c2ccccc2)CC1 | % | 3.61
Nc1ncn(C2CC(O)C(CO)S2)c(=O)n1 (stereo unspecified) + NC1CCC(NC2CC2c2ccccc2)CC1 | % | 62
Nc1ccn(C2OC(CO)C(O)C2(F)F)c(=O)n1 (stereo unspecified) + NC1CC1c1ccc(-c2cccc(O)c2)cc1 | % | 10.6
CCc1c2c(nc3ccc(O)cc13)-c1cc3c(c(=O)n1C2)COC(=O)[C@]3(O)CC + NC1CC1c1ccc(-c2cccc(O)c2)cc1 | % | 2.64
Nc1ccn(C2OC(CO)C(O)C2(F)F)c(=O)n1 (stereo unspecified) + NC1CCC(NC2CC2c2ccccc2)CC1 | % | 9.83
Nc1ncn(C2CC(O)C(CO)S2)c(=O)n1 (stereo unspecified) + NC1CC1c1ccc(-c2cccc(O)c2)cc1 | % | 80.8

###

System: 292921-168-R-J2-PDC complex spheroid viability
Test: Anticancer human tumor 292921-168-R-J2-PDC cell line growth inhibition; active means viability on the fitted dose curve at most 10% of control; inactive means the rest;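 further: seven day compound exposure before luminescent viability read; 100% = DMSO vehicle control wells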
Settings: second compound 3.16 µM; first compound 0.1 µM
Possible outcomes: True (active), False (inactive)

MOLECULE | CLASS
Cn1ncnc1C1c2n[nH]c(=O)c3cc(F)cc(c23)NC1c1ccc(F)cc1 (stereo unspecified) + NC1CC1c1ccc(-c2cccc(O)c2)cc1 | False
CC1COCCN1c1cc(-c2ccnn2C)c2ccnc(-c3ccn[nH]3)c2n1 (stereo unspecified) + NC1CC1c1ccc(-c2cccc(O)c2)cc1 | False
CC(C)CC(NC(=O)CNC(=O)c1cc(Cl)ccc1Cl)B1OC(=O)CC(CC(=O)O)(C(=O)O)O1 (stereo unspecified) + NC1CCC(NC2CC2c2ccccc2)CC1 | True
CC1(C)CCC(CN2CCN(c3ccc(C(=O)NS(=O)(=O)c4ccc(NCC5CCOCC5)c([N+](=O)[O-])c4)c(Oc4cnc5[nH]ccc5c4)c3)CC2)=C(c2ccc(Cl)cc2)C1 + NC1CC1c1ccc(-c2cccc(O)c2)cc1 | False
O=C(C=Cn1cnc(-c2cc(C(F)(F)F)cc(C(F)(F)F)c2)n1)NNc1cnccn1 + NC1CCC(NC2CC2c2ccccc2)CC1 | False
CC1COCCN1c1cc(C2(S(C)(=N)=O)CC2)nc(-c2ccnc3[nH]ccc23)n1 (stereo unspecified) + NC1CCC(NC2CC2c2ccccc2)CC1 | False

###

Test system: 292921-168-R-J2-PDC complex spheroid viability
Experiment: Anticancer human tumor 292921-168-R-J2-PDC cell line growth inhibition;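 further: seven day compound exposure before luminescent viability read; 100% = DMSO vehicle control wells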
Details: second compound 1 µM; first compound 0.00949 µM; stronger effect = lower value
Classify: Met when viability, T/C is strictly less than 60%; Not met when viability, T/C is not.

MOLECULE | STUDY_TARGET | CLASS
CCN(c1cc(-c2ccc(CN3CCOCC3)cc2)cc(C(=O)NCc2c(C)cc(C)[nH]c2=O)c1C)C1CCOCC1 + NC1CC1c1ccc(-c2cccc(O)c2)cc1 | 292921-168-R-J2-PDC complex spheroid viability | Not met
NS(=O)(=O)OCC1CC(n2ccc3c(NC4CCc5ccccc54)ncnc32)CC1O (stereo unspecified) + NC1CCC(NC2CC2c2ccccc2)CC1 | 292921-168-R-J2-PDC complex spheroid viability | Not met
Nc1ncn(C2CC(O)C(CO)S2)c(=O)n1 (stereo unspecified) + NC1CCC(NC2CC2c2ccccc2)CC1 | 292921-168-R-J2-PDC complex spheroid viability | Met
Nc1ccn(C2OC(CO)C(O)C2(F)F)c(=O)n1 (stereo unspecified) + NC1CCC(NC2CC2c2ccccc2)CC1 | 292921-168-R-J2-PDC complex spheroid viability | Met
O=C(C=Cc1cccc(S(=O)(=O)Nc2ccccc2)c1)NO + NC1CC1c1ccc(-c2cccc(O)c2)cc1 | 292921-168-R-J2-PDC complex spheroid viability | Met
Nc1ccccc1NC(=O)c1ccc(CNC(=O)OCc2cccnc2)cc1 + NC1CC1c1ccc(-c2cccc(O)c2)cc1 | 292921-168-R-J2-PDC complex spheroid viability | Met
Nc1ncn(C2CC(O)C(CO)S2)c(=O)n1 (stereo unspecified) + NC1CC1c1ccc(-c2cccc(O)c2)cc1 | 292921-168-R-J2-PDC complex spheroid viability | Not met
NS(=O)(=O)OCC1CC(n2ccc3c(NC4CCc5ccccc54)ncnc32)CC1O (stereo unspecified) + NC1CC1c1ccc(-c2cccc(O)c2)cc1 | 292921-168-R-J2-PDC complex spheroid viability | Not met
Nc1ccccc1NC(=O)c1ccc(CNC(=O)OCc2cccnc2)cc1 + NC1CCC(NC2CC2c2ccccc2)CC1 | 292921-168-R-J2-PDC complex spheroid viability | Met
COc1cc(C2c3cc4c(cc3C(OC3OC5COC(C)OC5C(O)C3O)C3COC(=O)C23)OCO4)cc(OC)c1O (stereo unspecified) + NC1CCC(NC2CC2c2ccccc2)CC1 | 292921-168-R-J2-PDC complex spheroid viability | Met
O=C(C=Cc1cccc(S(=O)(=O)Nc2ccccc2)c1)NO + NC1CCC(NC2CC2c2ccccc2)CC1 | 292921-168-R-J2-PDC complex spheroid viability | Met
CCc1c2c(nc3ccc(O)cc13)-c1cc3c(c(=O)n1C2)COC(=O)[C@]3(O)CC + NC1CCC(NC2CC2c2ccccc2)CC1 | 292921-168-R-J2-PDC complex spheroid viability | Met
Nc1ccn(C2OC(CO)C(O)C2(F)F)c(=O)n1 (stereo unspecified) + NC1CC1c1ccc(-c2cccc(O)c2)cc1 | 292921-168-R-J2-PDC complex spheroid viability | Met
CCc1c2c(nc3ccc(O)cc13)-c1cc3c(c(=O)n1C2)COC(=O)[C@]3(O)CC + NC1CC1c1ccc(-c2cccc(O)c2)cc1 | 292921-168-R-J2-PDC complex spheroid viability | Met
COc1cc(C2c3cc4c(cc3C(OC3OC5COC(C)OC5C(O)C3O)C3COC(=O)C23)OCO4)cc(OC)c1O (stereo unspecified) + NC1CC1c1ccc(-c2cccc(O)c2)cc1 | 292921-168-R-J2-PDC complex spheroid viability | Not met
